Known self-cleavage of a selection of variants
B1: LINE1-full (parent)
chain: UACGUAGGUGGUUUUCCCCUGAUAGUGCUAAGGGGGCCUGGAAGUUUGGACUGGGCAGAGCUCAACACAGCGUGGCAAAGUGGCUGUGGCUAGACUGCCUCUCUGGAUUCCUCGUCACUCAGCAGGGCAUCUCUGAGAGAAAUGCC

variants of: B1; assay: self-cleavage, relative activity (ratio to wild type); higher = more cleavage; in vitro, sequencing; the parent is a self-cleaving ribozyme
Number, no unit, nothing else.

Variant spec: U45A A121G
self-cleavage: 1.88
//
Variant spec: U85A U108G
self-cleavage: 0.12
//
Variant spec: A69G U87G
self-cleavage: 0.48

# ---- query variant ----
Lookup: Any idea what self-cleavage was measured for U45A U85A ?
Found: 0.06
